# Target desc: T1, human CD137 expressed on the surface of CHO cells (human, UniProt Q07011 24-255)
# T1 construct: Also used for the Jurkat reporter cells that express human CD137 (functional rows); also called CHO human CD137 cells; CHO huCD137
# T1 sequence (Q07011 24-255 limits assumed): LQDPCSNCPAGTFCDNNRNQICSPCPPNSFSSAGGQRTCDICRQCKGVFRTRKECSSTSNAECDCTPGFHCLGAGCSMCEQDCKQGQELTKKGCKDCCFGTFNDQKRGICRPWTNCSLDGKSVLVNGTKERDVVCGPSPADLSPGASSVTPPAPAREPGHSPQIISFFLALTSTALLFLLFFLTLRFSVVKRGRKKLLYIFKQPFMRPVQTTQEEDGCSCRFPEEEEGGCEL
# Assay overview: FMAT ligand inhibition, CD137 Ligand on CHO human CD137 cells
Binning rule for recorded IC50: low class = under 1 nM, middle class = from 1 nM up to 3 nM, high class = 3 nM and over

Example entries and their recorded answers appear below.
>>> assigned_category("Humabody VH 1.110 (VHH, human single VH domain) VHH: EVQLVESGGGLVQPGGSLRLSCAASGFTLSNYWMNWVRQAPGKGLEWVANINQDGSERYYVDSVKGRFTISRDNAKNSLYLQMNSLRAEDTAVYFCARGGEGYGVDHYGLDVSGQGTTVTVSS")
"low class"
>>> assigned_category("Humabody VH 1.103 (VHH, human single VH domain) VHH: EVQLVESGGGLVQPGGSLRLSCAASGFTFSSHWMTWFRQAPGKGLEWVAHIKEDGSEKYYVDSVKGRFTISRDNAKNSLYLQMNSLRAEDTAVYYCARGGEGYSDSHFGVDVWGQGTTVTVSS")
"middle class"

Consider Humabody VH 1.52 (VHH, human single VH domain) VH: EVQLVESGGGLVQIGGSLRLSCAASGFTFSKYWMIWVRQAPEKGLEWVANINQDGSEKYYVDSVEGRFTISRDNANNSLFLQMNSLRAEDTAVYYCARGGDDYSISHFGMDVSGQGTRVTVSSHHHHHH . To which IC50 class does it belong? middle class

Consider Humabody VH 1.1 (VHH, human single VH domain; also called single domain antibody 1.1) VH: EVQLVESGGGLVQPGGSLRLSCAASGFTFSSHWMTWFRQAPGKGLEWVAHIKEDGSEKYYEDSVEGRFTVSRDNAKNSVYLQMNSLRAEDTAVYYCARGGDGYSDSHFGVDVWGQGTTVTVSSHHHHHH . To which IC50 class does it belong? middle class

Consider Humabody VH 2.14 (VHH, human single VH domain) VH: EVQLVESGGGLVKPGGSLRLSCAASGFTFSDYYMTWFRQAPGKGLEWISYISGSGDTIDYAESVKGRFTISRDNAKNSLYLQMNSLRAEDTAVYYCAREDIRMPGTTDFDHWGQGTLVTVSSHHHHHH . To which IC50 class does it belong? middle class

Consider 4.1-6GS-1.78 (bispecific antibody, built from its printed name (4.1, 6GS linker, 1.78); not shown: His tag) EVQLVESGGGVVQPGRSLRLSCAASGFSFSGYGMHWVRQAPGKGLEWVAYISYDGSNKYYADSVKGRFTISRDNSKNTLYLQMNSLRAEDTAVYYCAKDPAWGLRLGESSSYDFDIWGQGTMVTVSSGGGGSGGGGSGGGGSGGGGSGGGGSGGGGSQVQLVESGGGLVQPGGSLRLSCAATGFTLSNYWMNWVRQAPGKGLEWVANINQDGSERYYVDSVKGRFTISRDNAKNSLYLQMSSLRAEDTAVYFCARGGEGYGVDHYGLDVSGQGTTVTVSS . To which IC50 class does it belong? high class

Consider Humabody VH 1.114 (VHH, human single VH domain) VHH: EVQLVESGGGLVQPGGSLRLSCAASGFTLSNYWMNWVRQAPGKGLEWVANINQDESERYYVDSVKGRFTISRDNAKNSLYLQMNSLRAEDTAVYYCARGGEGYGVDHYGLDVSGQGTTVTVSS . To which IC50 class does it belong? low class

Consider Humabody VH 1.105 (VHH, human single VH domain) VHH: EVQLVESGGGLVQPGGSLRLSCAASGFTFSSHWMTWFRQAPGKGLEWVAHIKEDESEKYYVDSVKGRFTISRDNAKNSLYLQMNSLRAEDTAVYYCARGGVGYSISHFGVDVWGQGTTVTVSS . To which IC50 class does it belong? middle class

Consider Humabody VH 2.51 (VHH, human single VH domain) VHH: EVQLVESGGGLVKPGGSLRLSCAASGFTFSDYYMSWFRQAPGKGLEWVSYISGSGDIIDYADSVKGRFTISRDNAKNSLYLQMNSLRAEDTAVYYCAREDPRLTGTTDFDNWGQGTLVTVSS . To which IC50 class does it belong? high class

Consider Humabody VH 1.92 (VHH, human single VH domain) VHH: EVQLVESGGGLVQPGGSLRLSCAASGFTFSSHWMTWFRQAPGKGLEWVAHIKEDGSEKYYEDSVKGRFTVSRDNAKNSVYLQMNSLRAEDTAVYYCARGGDGYSDSHFGVDVWGQGTTVTVSS . To which IC50 class does it belong? middle class

Consider 2.1-6GS-2.1 (VHH, bivalent tandem VH, monospecific for CD137; also called bivalent Humabody VH 2.1; not shown: His tag) EVQLVESGGGLVKPGGSLRVSCAASGFTFSDYYMSWFRQAPGKGLEWVSYISGSGDIIDYADSVKGRFTISRDNAKNSLYLQMNNLRAEDTAVYHCAREDSRLTGTTDFDNWGQGTLVTVSSGGGGSGGGGSGGGGSGGGGSGGGGSGGGGSEVQLVESGGGLVKPGGSLRVSCAASGFTFSDYYMSWFRQAPGKGLEWVSYISGSGDIIDYADSVKGRFTISRDNAKNSLYLQMNNLRAEDTAVYHCAREDSRLTGTTDFDNWGQGTLVTVSS . To which IC50 class does it belong? low class

Consider Humabody VH 2.1 (VHH, human single VH domain) VH: EVQLVESGGGLVKPGGSLRVSCAASGFTFSDYYMSWFRQAPGKGLEWVSYISGSGDIIDYADSVKGRFTISRDNAKNSLYLQMNNLRAEDTAVYHCAREDSRLTGTTDFDNWGQGTLVTVSSHHHHHH . To which IC50 class does it belong? high class

Consider Humabody VH 1.97 (VHH, human single VH domain) VHH: EVQLVESGGGLVQPGGSLRLSCAASGFTFSSHWMTWVRQAPGKGLEWVAHIKEDESEKYYVDSVKGRFTISRDNAKNSLYLQMNSLRAEDTAVYYCARGGVGYSISHFGVDVWGQGTTVTVSS . To which IC50 class does it belong? high class

All values here come from patent US20200362047A1.
